# experimental protocol: Pharmacokinetic study in female mice (plasma, liver, bone)
# Assay type: in vivo, female C57/BL6 mice
# conditions used: female, C57/BL6, mouse, plasma, po, 10 mg/kg, plasma; PO 10 mg/kg, one administration; read-out: C0
quantity: C0 (µg/mL)
Give your result in µg/mL as a bare value.

Look up C0: O=C1Nc2ccc(-c3cc(C(F)(F)F)cc(C(F)(F)F)c3)cc2C(=O)N2CCN(C(=O)COc3ccc(OC(F)(F)F)cc3I)C[C@@H]12 0.366

====

# experimental protocol: Pharmacokinetic study in female mice (plasma, liver, bone)
# Type: in vivo, female C57/BL6 mice
# conditions used: female, C57/BL6, mouse, liver/plasma, iv, 3 mg/kg, IV 3 mg/kg; read-out: Cmax Ratio (Liver/Plasma)
quantity: Kp
Reply with just the number.

Look up Kp: O=C1Nc2ccc(-c3cc(C(F)(F)F)cc(C(F)(F)F)c3)cc2C(=O)N2CCN(C(=O)COc3ccc(OC(F)(F)F)cc3I)C[C@@H]12 [Example 187] 10.9

====

# experimental protocol: Pharmacokinetic study in female mice (plasma, liver, bone)
# Assay type: in vivo, female C57/BL6 mice
# conditions used: female, C57/BL6, mouse, bone/plasma, po, 10 mg/kg, PO 10 mg/kg, one administration; read-out: AUClast Ratio (Bone/Plasma)
quantity: Kp
Reply with just the number.

Look up Kp: O=C1Nc2ccc(-c3cc(C(F)(F)F)cc(C(F)(F)F)c3)cc2C(=O)N2CCN(C(=O)COc3ccc(OC(F)(F)F)cc3I)C[C@@H]12 [Example 187] 0.725

====

# experimental protocol: Pharmacokinetic study in female mice (plasma, liver, bone)
# Type: in vivo, female C57/BL6 mice
# conditions used: female, C57/BL6, mouse, plasma, po, 10 mg/kg, Table 10; POA single 10 mg/kg; read-out: Area under the curve-AUClast
quantity: AUC(0-t) (ng·h/mL)
Give your result in ng·h/mL as a bare value.

Look up AUC(0-t): O=C1Nc2ccc(-c3cc(C(F)(F)F)cc(C(F)(F)F)c3)cc2C(=O)N2CCN(C(=O)COc3ccc(OC(F)(F)F)cc3I)C[C@@H]12 [Example 187] 2620

====

# experimental protocol: Pharmacokinetic study in female mice (plasma, liver, bone)
# Assay type: in vivo, female C57/BL6 mice
# conditions used: female, C57/BL6, mouse, plasma, iv, 3 mg/kg, Table 10; IV 3 mg/kg; read-out: Concentration-C0
quantity: C0 (ng/mL)
Give your result in ng/mL as a bare value.

Look up C0: O=C1Nc2ccc(-c3cc(C(F)(F)F)cc(C(F)(F)F)c3)cc2C(=O)N2CCN(C(=O)COc3ccc(OC(F)(F)F)cc3I)C[C@@H]12 [Example 187] 3590

====

# experimental protocol: Pharmacokinetic study in female mice (plasma, liver, bone)
# Assay type: in vivo, female C57/BL6 mice
# conditions used: female, C57/BL6, mouse, plasma, po, 10 mg/kg, plasma; PO 10 mg/kg, one administration; read-out: AUClast
quantity: AUC(0-t) (ng·h/mL)
Give your result in ng·h/mL as a bare value.

Look up AUC(0-t): O=C1Nc2ccc(-c3cc(C(F)(F)F)cc(C(F)(F)F)c3)cc2C(=O)N2CCN(C(=O)COc3ccc(OC(F)(F)F)cc3I)C[C@@H]12 2620
